Experiment: Probe calibration by titration with FFA / FFA-BSA complexes: SA
Type: binding
Details: equilibrium dissociation constant of probe for SA; read-out: Kd SA
pKd: −log10 of the molar value.
pKd for assorted molecules
MEASUREMENT_LABEL: pKd

1. L1P8 H2: acrylodan-labeled mutant FABP probe: Y14M, L38M, L72W (protein, UniProt P02693 2-132, looked up, variant Y14M L38M L72W, acrylodan label, acrylodan-labeled mutant FABP probe: Y14M, L38M, L72W) Fatty acid-binding protein, …: AFDGTWKVDRNENMEKFMEKMGINVVKRKLGAHDNLKMTITQEGNKFTVKESSNFRNIDVVFELGVDFAYSWADGTELTGTWTMEGNKLVGKFKRVDNGKELIAVREISGNELIQTYTYEGVEAKRIFKKE : 7.72
2. ADIFAB2: acrylodan-labeled (lysine 27) mutant FABP probe: L72A (protein, UniProt P02693 2-132, looked up, variant L72A, acrylodan label on K27, acrylodan-labeled (lysine 27) mutant FABP probe: L72A) Fatty acid-binding protein, …: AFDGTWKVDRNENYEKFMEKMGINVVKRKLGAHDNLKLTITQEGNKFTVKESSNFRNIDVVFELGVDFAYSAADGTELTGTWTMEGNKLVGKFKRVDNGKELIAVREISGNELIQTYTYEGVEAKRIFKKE : 8.03
3. L2P22 G6: acrylodan-labeled mutant FABP probe: M18I, G31Y, A73G (protein, UniProt P02693 2-132, looked up, variant M18I G31Y A73G, acrylodan label, acrylodan-labeled mutant FABP probe: M18I, G31Y, A73G) Fatty acid-binding protein, …: AFDGTWKVDRNENYEKFIEKMGINVVKRKLYAHDNLKLTITQEGNKFTVKESSNFRNIDVVFELGVDFAYSLGDGTELTGTWTMEGNKLVGKFKRVDNGKELIAVREISGNELIQTYTYEGVEAKRIFKKE : 7.75
4. L10P7 A4 L30C: acrylodan-labeled mutant FABP probe: Y14L, M18L, K27A, L30C, G31Y, A73L, Y117A (protein, UniProt P02693 2-132, looked up, variant Y14L M18L K27A L30C G31Y A73L Y117A, acrylodan label, acrylodan-labeled mutant FABP probe: Y14L, M18L, K27A, L30C, G31Y, A73L, Y117A) Fatty acid-binding protein, …: AFDGTWKVDRNENLEKFLEKMGINVVARKCYAHDNLKLTITQEGNKFTVKESSNFRNIDVVFELGVDFAYSLLDGTELTGTWTMEGNKLVGKFKRVDNGKELIAVREISGNELIQTATYEGVEAKRIFKKE : 8.70
